Assay system: pp60^c-src (Homo sapiens)
Test: Src inhibition (RR-SRC phosphorylation), Cellular Mimetic assay
Condition label: Table IV
Property label: pIC50
# log scale: pIC50 equals minus log10 of the concentration in mol/L

Prompt: Look up and report measured pIC50 for this entry: O=S(=O)(O)Nc1ccc2ccccc2c1
Completion: 2.80

---

Provide the reported % Inhibition of 2 mM RR-src at Inhibitor Concentration (100 μM) of each item.
Assay system: pp60^c-src (Homo sapiens, UniProt P12931)
Sequence (P12931 whole entry): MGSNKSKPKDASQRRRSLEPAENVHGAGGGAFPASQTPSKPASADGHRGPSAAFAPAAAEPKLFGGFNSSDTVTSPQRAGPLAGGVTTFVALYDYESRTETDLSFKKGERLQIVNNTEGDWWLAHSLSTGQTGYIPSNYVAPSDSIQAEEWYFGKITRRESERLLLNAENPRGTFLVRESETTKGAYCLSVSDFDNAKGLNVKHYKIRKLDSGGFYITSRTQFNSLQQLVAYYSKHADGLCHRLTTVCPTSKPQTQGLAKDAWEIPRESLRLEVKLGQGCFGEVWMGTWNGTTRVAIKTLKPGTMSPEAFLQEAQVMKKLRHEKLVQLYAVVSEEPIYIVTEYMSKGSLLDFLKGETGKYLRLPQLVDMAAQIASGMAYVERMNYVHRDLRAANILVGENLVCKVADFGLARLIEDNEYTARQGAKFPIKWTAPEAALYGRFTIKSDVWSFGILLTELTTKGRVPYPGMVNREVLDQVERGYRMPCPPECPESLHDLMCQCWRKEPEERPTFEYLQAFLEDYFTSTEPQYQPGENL
Test: Src inhibition (RR-SRC phosphorylation), Cellular Mimetic assay
Condition label: inhibitor 100 μM; Table IV

Prompt: Look up and report measured % Inhibition of 2 mM RR-src at Inhibitor Concentration (100 μM) for this entry: OB(O)c1cc2ccccc2o1
Completion: 10 (100 μM) %

Prompt: Look up and report measured % Inhibition of 2 mM RR-src at Inhibitor Concentration (100 μM) for this entry: NS(=O)(=O)c1ccc2ccccc2c1
Completion: 0 (100 μM) %

Prompt: Look up and report measured % Inhibition of 2 mM RR-src at Inhibitor Concentration (100 μM) for this entry: OB(O)c1cccc2ccccc12
Completion: 0 (100 μM) %

Prompt: Look up and report measured % Inhibition of 2 mM RR-src at Inhibitor Concentration (100 μM) for this entry: NS(=O)(=O)c1cccc2ccccc12
Completion: 0 (100 μM) %

Prompt: Look up and report measured % Inhibition of 2 mM RR-src at Inhibitor Concentration (100 μM) for this entry: OB(O)c1cc2ccccc2s1
Completion: 12 (100 μM) %
